# Assayed System: human ANO6 (Homo sapiens)
# Construct: expressed in transfected cells
# Sequence (Q4KMQ2 1-931 isoform Q4KMQ2-2): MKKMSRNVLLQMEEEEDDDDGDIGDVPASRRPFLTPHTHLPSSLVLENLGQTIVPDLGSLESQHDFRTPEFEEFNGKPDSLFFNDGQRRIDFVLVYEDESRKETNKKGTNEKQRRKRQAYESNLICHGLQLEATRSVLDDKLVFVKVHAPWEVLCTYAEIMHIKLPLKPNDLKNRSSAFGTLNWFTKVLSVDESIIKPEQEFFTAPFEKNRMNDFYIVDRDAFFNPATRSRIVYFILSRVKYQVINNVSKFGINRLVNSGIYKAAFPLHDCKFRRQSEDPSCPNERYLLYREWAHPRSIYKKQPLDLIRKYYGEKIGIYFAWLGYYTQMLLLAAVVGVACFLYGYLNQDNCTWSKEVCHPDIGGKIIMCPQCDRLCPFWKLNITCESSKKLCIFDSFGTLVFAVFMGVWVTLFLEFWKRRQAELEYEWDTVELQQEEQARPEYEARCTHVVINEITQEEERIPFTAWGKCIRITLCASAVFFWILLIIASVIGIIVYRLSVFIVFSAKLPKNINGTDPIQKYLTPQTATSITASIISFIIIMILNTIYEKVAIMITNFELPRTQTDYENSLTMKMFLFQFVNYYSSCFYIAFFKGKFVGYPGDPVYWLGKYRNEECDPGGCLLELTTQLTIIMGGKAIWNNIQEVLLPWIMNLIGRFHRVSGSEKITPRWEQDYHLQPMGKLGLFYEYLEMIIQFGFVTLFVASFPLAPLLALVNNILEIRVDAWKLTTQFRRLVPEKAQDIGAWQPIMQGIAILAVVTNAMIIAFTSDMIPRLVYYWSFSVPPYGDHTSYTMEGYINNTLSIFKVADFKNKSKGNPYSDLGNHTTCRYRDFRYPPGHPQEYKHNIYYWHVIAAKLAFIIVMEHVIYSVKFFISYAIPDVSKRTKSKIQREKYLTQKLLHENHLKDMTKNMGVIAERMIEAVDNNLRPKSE
# Procedure Text: YFP quenching assay (ANO6 ion channel activity)
# Format: cell-based
# Study Conditions: test compound 30 μM, 10 μM ionomycin, read-out: Inhibition Level 30 μM
Parameter: inhibition at 30 µM

Check out these entries, answers already filled in.
                                   compound            parameter     result
0      Cc1ccc(CNC(=O)c2cccc(Nc3cccnn3)c2)o1  inhibition at 30 µM  30 to 60%
1  COc1ccc(CNC(=O)c2cccc(Nc3ccc(-c4ccccc4)nn3)c2)cc1  inhibition at 30 µM      ≥ 60%

Any idea what inhibition at 30 µM was measured for Cc1ccc(-c2ccc(Nc3cccc(C(=O)NCC(C)C)c3)nn2)cc1 ?
≥ 60%

Any idea what inhibition at 30 µM was measured for O=C(NCCCN1CCOCC1)c1cccc(Nc2ccc(-c3ccccc3)nn2)c1 ?
30 to 60%

Any idea what inhibition at 30 µM was measured for O=C(NC1CCCc2ccccc21)c1cccc(Nc2ccc(-c3ccccc3)nn2)c1 (stereo not drawn) ?
≥ 60%

Any idea what inhibition at 30 µM was measured for COc1ccc(OC)c(CNC(=O)c2cccc(Nc3ccc(-c4ccccc4)nn3)c2)c1 ?
≥ 60%

Any idea what inhibition at 30 µM was measured for O=C(NCC1CCC1)c1cccc(Nc2ccc(-c3ccccc3)nn2)c1 ?
≥ 60%

Any idea what inhibition at 30 µM was measured for O=C(NCc1ccc2c(c1)OCO2)c1cccc(Nc2ccc(-c3ccccc3)nn2)c1 ?
≥ 60%

Any idea what inhibition at 30 µM was measured for Cc1ccccc1CNC(=O)c1cccc(Nc2ccc(-c3ccccc3)nn2)c1 ?
≥ 60%

Any idea what inhibition at 30 µM was measured for O=C(NCc1ccccc1)c1cccc(Nc2ccc(-c3ccc(F)cc3)nn2)c1 ?
≥ 60%

Any idea what inhibition at 30 µM was measured for Cc1ccc(-c2ccc(Nc3cccc(C(=O)NCc4ccc(C)o4)c3)nn2)cc1 ?
≥ 60%

Any idea what inhibition at 30 µM was measured for Cc1ccc(CNC(=O)c2cccc(Nc3ncc(-c4cccc(F)c4)cn3)c2)o1 ?
30 to 60%

Any idea what inhibition at 30 µM was measured for Cc1ccc(CNC(=O)c2ccc(Nc3ccc(-c4ccccc4)nn3)cc2)o1 ?
< 30%

Any idea what inhibition at 30 µM was measured for O=C(NCc1cccnc1)c1cccc(Nc2ccc(-c3ccccc3)nn2)c1 ?
≥ 60%

Any idea what inhibition at 30 µM was measured for O=C(NCc1cccs1)c1cccc(Nc2ccc(-c3ccccc3)nn2)c1 ?
≥ 60%

Any idea what inhibition at 30 µM was measured for O=C(NCc1ccncc1)c1cccc(Nc2ccc(-c3ccccc3)nn2)c1 ?
30 to 60%

Any idea what inhibition at 30 µM was measured for CCCOc1ccc(CNC(=O)c2cccc(Nc3ccc(-c4ccccc4)nn3)c2)cc1 ?
≥ 60%

Any idea what inhibition at 30 µM was measured for Cc1ccc(CNC(=O)c2cccc(Nc3ccc(-c4cccnc4)nn3)c2)o1 ?
≥ 60%

Any idea what inhibition at 30 µM was measured for O=C(NCCC1=CCCCC1)c1cccc(Nc2ccc(-c3ccccc3)nn2)c1 ?
≥ 60%

Any idea what inhibition at 30 µM was measured for CCNC(=O)c1cccc(Nc2ccc(-c3ccccc3)nn2)c1 ?
≥ 60%
